Molecular target: Human recombinant full-length MNK1 protein (Homo sapiens, UniProt Q9BUB5)
Construct: Human recombinant full-length MNK1 protein
Sequence (Q9BUB5 whole entry): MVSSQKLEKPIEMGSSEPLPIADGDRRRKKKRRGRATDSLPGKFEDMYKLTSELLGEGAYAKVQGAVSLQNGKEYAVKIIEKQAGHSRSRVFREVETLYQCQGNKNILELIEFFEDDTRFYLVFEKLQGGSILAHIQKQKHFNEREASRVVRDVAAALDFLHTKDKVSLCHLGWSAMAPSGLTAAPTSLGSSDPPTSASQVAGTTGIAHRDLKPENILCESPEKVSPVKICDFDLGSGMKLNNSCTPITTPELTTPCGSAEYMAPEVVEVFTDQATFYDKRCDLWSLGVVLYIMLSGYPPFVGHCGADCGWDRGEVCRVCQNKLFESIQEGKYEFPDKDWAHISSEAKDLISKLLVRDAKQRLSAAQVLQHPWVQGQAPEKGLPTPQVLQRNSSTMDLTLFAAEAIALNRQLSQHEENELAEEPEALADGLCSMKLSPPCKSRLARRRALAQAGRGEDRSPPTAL
Assay: MNK1 inhibitory activity assay (ADP-Glo in vitro kinase assay)
Settings: 10 concentration points
Where a name gives a salt, the structure may show the parent alone.
measurement-type: IC50 (nM)

>>> recorded_number("COc1c(Nc2ncnc3[nH]ncc23)ccc2c1CNC2=O [Compound 81]")
103

A: COc1cc2[nH]ncc2cc1Nc1cc(Nc2ccc(Cl)cn2)ncn1 [Compound 24, formate]
B: COc1cc2[nH]ncc2cc1Nc1cc(Nc2ccccn2)ncn1 [Compound 20, formate]
C: COc1c(Nc2cc(NC(=O)C3CC3)ncn2)ccc2c1CNC2=O [Compound 67]
[ask] Sort these compounds on IC50 so the largest reading comes first. Form entry: labels listed in requested order.
[reply] A, B, C

I: COc1cc2[nH]ncc2cc1Nc1cc(Nc2ncccn2)ncn1 [Compound 27]
II: COc1c(Nc2cc(Nc3cccc(Cl)n3)ncn2)ccc2c1CNC2=O [Compound 86]
[ask] Identify the entry with the smaller IC50: I or II . Give the chosen item's label as your response.
[reply] II
(II: 18.5 nM, I: 43.8 nM)

P: COc1cc2[nH]ncc2cc1Nc1cc(Nc2cc(C(F)(F)F)ccn2)ncn1 [Compound 25]
Q: COc1cc2c(cnn2C)cc1Nc1cc(NC(=O)C2CC2)ncn1 [Compound 5]
[ask] Identify the entry with the smaller IC50: P or Q . Give the chosen item's label as your response.
[reply] P
(P: 40 nM, Q: 585 nM)

// data source = patent US20220289719A1
